Test system: SNB-75
assay-remarks: NCI tumour cell line growth inhibition, 48 h
Activity calls are given as the source filed them. Cut-off read from the data, not from the text of the source: active = GI50 up to about 1.1 µM and inactive = higher.
measured-metric: GI50

Could you share which GI50 value was measured for CCOC(=O)C1(CO)CSCCSC1 ?
> 100 µM (inactive)

Could you share which GI50 value was measured for O=C(Nn1c(-c2ccccc2)nc2ccccc2c1=O)c1ccccn1 ?
42.1 µM (inactive)

Could you share which GI50 value was measured for C=CC(O)(CBr)CCC(Br)C(=C)C (stereo unspecified) ?
> 10 µM (inactive)

Could you share which GI50 value was measured for CC1(C)OC(=O)N(c2ccccc2)C12C=Cc1cccc([N+](=O)[O-])c1O2 (stereo unspecified) ?
35.6 µM (inactive)

Could you share which GI50 value was measured for COc1cc(OCc2ccc3nc(-c4ccccc4)c(N)nc3c2)cc(OC)c1OC ?
19.2 µM (inactive)

Could you share which GI50 value was measured for CCOC12OC3=C(CC1CC1=C(CCC1=O)O2)C(=O)CC3 (stereo unspecified) ?
> 100 µM (inactive)

Could you share which GI50 value was measured for Cc1ccc(C(=O)/C=C2\Nc3ccccc3N=C2NC23CC4CC(CC(C4)C2)C3)cc1 ?
> 10 µM (inactive)

Could you share which GI50 value was measured for COC(=O)C(Cc1nc2ccc(Cl)cc2nc1O)/C(=N/O)C(=O)Nc1cccc(Cl)c1C (stereo unspecified) ?
65.6 µM (inactive)

Could you share which GI50 value was measured for NC(=O)C1=C(c2ccccc2)c2ccccc2C1=O ?
19.7 µM (inactive)

Could you share which GI50 value was measured for CCCCC/C(=N\c1[nH]nnc1C(N)=O)OCC ?
> 100 µM (inactive)

Could you share which GI50 value was measured for O=C(O)CCCC(=O)Nn1c(Cc2ccc(Cl)cc2)n[nH]c1=O ?
> 10 µM (inactive)

---

Test system: UACC-62
assay-remarks: NCI tumour cell line growth inhibition, 48 h
The source made the active and inactive calls. Rule as the data show it: active = GI50 up to about 1.1 µM and inactive = higher.
# output must be one of 1 for active, 0 for inactive

State the result this test recorded for Cc1ccc(/C=C2\CNC/C(=C\c3ccc(C)cc3)C2=O)cc1 .
0

State the result this test recorded for Cc1ccc(Sc2ccc(C)cc2[N+](=O)[O-])c([N+](=O)[O-])c1 .
0

State the result this test recorded for COc1ccc(C2CC3(c4ccccc4)ON=C(c4ccccc4)N3c3ccccc3S2)cc1 (centres undefined) .
0

State the result this test recorded for CCC(=O)NC(Nc1ccc(O)cc1)(C(F)(F)F)C(F)(F)F .
0

State the result this test recorded for COc1cc2c(cc1OC)C1=CCC(c3ccccc3)[N+]1(C)CC2 (centres undefined) .
0

State the result this test recorded for CC1=CC[C@@]2(C)[C@@H]([C@@H]1C)[C@H]1CC[C@@H]3[C@@]4(C)CC[C@H](O)C(C)(C)[C@@H]4CC[C@@]3(C)[C@]1(C)C[C@@H]2O .
0

State the result this test recorded for O=c1[nH]c(=O)n(C2CC(O)C(CO)O2)cc1/N=N/NCc1ccccc1 (centres undefined) .
0

State the result this test recorded for CC12CP(=O)(c3ccccc3)CC1C2(Cl)Cl (centres undefined) .
0

State the result this test recorded for COC1(OC)c2occc2C(=N)c2ccc(=O)oc21 .
0

State the result this test recorded for COC(=O)[C@@H]1CN(C(=O)c2ccccc2)C(=O)N1 .
0

State the result this test recorded for CCc1c(Cc2cc(C)cc(C)c2)n2c(nc1=O)SCC2CBr (centres undefined) .
0

State the result this test recorded for COc1ccc2c(c1OC)OCC(CN(C)C)C2=O (centres undefined) .
0

State the result this test recorded for COc1cccc(CC(=O)N2CCN(CCCc3ccccc3)CC2)c1 .
0

State the result this test recorded for CCc1ncc(CO)n1Cc1cccc2ccccc12 .
0

State the result this test recorded for Nc1ncnc2c1ncn2C1OC(CO)=CC1O (centres undefined) .
0

State the result this test recorded for Cn1c(=O)oc2cc(C(=O)CN3CCN(Cc4ccc5c(c4)OCO5)CC3)c(Cl)cc21 .
0

State the result this test recorded for N#CC(c1ccccn1)c1nc2ccccc2[nH]1 (centres undefined) .
0

State the result this test recorded for COc1ccc(C2=Cc3nc2c(-c2ccccc2)c2ccc([nH]2)c(-c2ccccc2)c2nc(c(-c4ccccc4)c4ccc([nH]4)c3-c3ccccc3)C=C2)cc1 .
0

State the result this test recorded for CCN(CC)CC/N=C\c1c(O)c(O)c(C(C)C)c2cc(C)c(-c3c(C)cc4c(C(C)C)c(O)c(O)c(/C=N/CCN(CC)CC)c4c3O)c(O)c12 .
0

State the result this test recorded for COC(=O)C1=C(C(=O)OC)SC2(S1)C1=C(CCCC1)SC(C(=O)OC)=C2C(=O)OC .
0

State the result this test recorded for C/C=C/[C@H]1O[C@@](O)([C@@H](C)[C@H](O)[C@H](C)[C@H]2OC(=O)/C(OC)=C/C(C)=C/[C@@H](C)[C@@H](O)[C@@H](CC)[C@@H](O)[C@H](C)C/C(C)=C/C=C/[C@@H]2OC)C[C@H](OC2CC(O)C(O)C(C)O2)[C@@H]1C (some centres undefined) .
1

State the result this test recorded for CCOc1ccc(NC(=O)/C(=N\NC(C)(C)C)C2C(=O)Nc3ccccc3[S+]2[O-])cc1 (centres undefined) .
0

State the result this test recorded for O=P(O)(O)c1ccc(-c2ccc(I)cc2)cc1 .
0

State the result this test recorded for COC1CCC(OS(C)(=O)=O)C(CO)O1 (centres undefined) .
0

State the result this test recorded for CCCCC(O)(c1ccccc1)C(O)(c1ccccc1)c1c(F)c(F)c(F)c(F)c1F (centres undefined) .
0

State the result this test recorded for O=c1oc2cc(O)ccc2cc1-c1nc2ccccc2o1 .
0

State the result this test recorded for CSc1nc(Br)nc2ncn(C3CC(Oc4ccc(C)cc4)C(COc4ccc(C)cc4)O3)c12 (centres undefined) .
0

State the result this test recorded for Cc1cc(C[C@H]2O[C@@H]3OC(C)(C)O[C@@H]3[C@H]3OC(C)(C)O[C@H]32)c2ccccc2n1 .
0

State the result this test recorded for CCCCCCCCCCCCC(Br)C(C)=O (centres undefined) .
0

State the result this test recorded for Cc1ccc(N/C(Sc2ccccc2)=C(/C(Cl)=C(Cl)Cl)[N+](=O)[O-])c(C)c1 .
0

State the result this test recorded for CC(C)C1=CC23CCC4C(C)(C(=O)O)CCCC4(C)C2CC1C1C(=O)N(c2ccc(C(=O)O)cc2)C(=O)C13 (centres undefined) .
0

State the result this test recorded for Nc1ncc(Cc2ccc3c(c2)OCO3)c(N)n1 .
0

State the result this test recorded for COc1ccc(CCCNC(=O)c2cc(OC)c(OC)cc2CCO)cc1OC .
0

State the result this test recorded for CCCC(=O)OCC1OC(n2cc(F)c(=O)[nH]c2=O)CC1O (centres undefined) .
1

State the result this test recorded for CCOC(=O)CC1=CSC2=NCCN12 .
0

State the result this test recorded for Cc1cc(NS(=O)(=O)c2ccc(NC(=O)COC(=O)c3cccc4c(=O)c5ccccc5[nH]c34)cc2)no1 .
0

State the result this test recorded for COC(=O)C(Nc1ccc(OC)cc1)c1ccccc1 (centres undefined) .
0

State the result this test recorded for C[N+](C)(C)CC(=O)N/N=C(\CCC(=O)NCCc1ccccc1)CC(=O)c1ccccc1 .
0

State the result this test recorded for CCOC(=O)C1=C(C)NC(C)=C(C(=O)OCC)C1c1ccc(C)cc1 .
0

---

Test system: NCI-H460
assay-remarks: NCI tumour cell line growth inhibition, 48 h
Active and inactive are the calls of the source. Rule as the data show it: active = GI50 up to about 1.1 µM and inactive = higher.
Consider the following molecules; for each one, report its GI50.

Could you share which GI50 value was measured for Cc1c(C)n(-c2ccccc2)c2nc(S(C)(=O)=O)nc(S(C)(=O)=O)c12 ?
16.9 µM (inactive)

Could you share which GI50 value was measured for CCOC(=O)[C-]([N+]#N)[Si](C)(C)C ?
> 100 µM (inactive)

Could you share which GI50 value was measured for Cc1cc(C[C@H]2O[C@@H]3OC(C)(C)O[C@@H]3[C@H]3OC(C)(C)O[C@H]32)c2ccccc2n1 ?
30 µM (inactive)

Could you share which GI50 value was measured for COc1ccccc1/N=N/c1c(-c2ccccc2)nn(C(=O)CC(=O)Nc2cccc(C)c2)c1-c1ccccc1 ?
27.2 µM (inactive)

Could you share which GI50 value was measured for CCCC[C@@H](C)/C=C1\CN2CCC[C@H]2[C@@](C)(OCc2ccccc2)[C@@H]1O ?
> 16.7 µM (inactive)

Could you share which GI50 value was measured for CC(=O)O[C@H]1CC[C@@]2(C)C(=CC[C@H]3[C@@H]4C[C@H](N5CCCC5)[C@H](OC(C)=O)[C@@]4(C)CC[C@@H]32)C1 ?
> 100 µM (inactive)

Could you share which GI50 value was measured for CCOC(=O)C1(C#N)C2(C#N)C(N)=NC(ON=C(C)C)(ON=C(C)C)C12C#N (stereo not drawn) ?
> 100 µM (inactive)

Could you share which GI50 value was measured for O=C1C2C3C=C4c5ccccc5N(c5ccccc5)C4(C2C(=O)N1c1ccc(Cl)cc1)[C@H]1C(=O)N(c2ccc(Cl)cc2)C(=O)[C@@H]31 (stereo partly drawn) ?
> 100 µM (inactive)
